test: chemical genetic growth profiling, strain panel (AID 1159580);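 note: tested at 20 µM; growth read once vehicle control cultures reached saturation at 30 °C; 1 = growth at the plate median or of vehicle wells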; details: S. cerevisiae deletion strains, growth OD, locus YGR252W, strain gcn5, stronger effect = lower value
Out of some 5,500 compounds screened, about 2,000 (36%) were called active. Another 18% or so got no clear call; they are omitted. Some of the results follow.
Lab note: compare normalized growth with 1, writing label 1 if less and label 0 if equal or more.

# count of solved cases: 8
Just wondering, is normalized growth of ClC1=C(Cl)C2(Cl)C3C(Cl)C=CC3C1(Cl)C2(Cl)Cl (stereo unspecified) below 1?
label 1

How about C[N+](C)(C)CCCCCC[N+](C)(C)C ?
label 1

Item: O=C1C=CC(=C(c2ccc(O)cc2)c2ccc(O)cc2)C=C1
label 1

Moving on to the next compound: ClC1=C(Cl)C2(Cl)C3C4C=CC(C4)C3C1(Cl)C2(Cl)Cl (stereo unspecified)
label 1

Try this compound too: CC(C[N+](C)(C)C)OC(N)=O (stereo unspecified)
label 0

What about COc1cc(NS(=O)(=O)c2ccc(N)cc2)nc(OC)n1 ?
label 0

What about CC(C)(OC(=O)c1ccccc1)[C@@H]1Cc2cc3ccc(=O)oc3cc2O1 ?
label 1

Cool, now CCCCCCCCCCCCCCCC[N+](C)(C)C
label 1

Now consider a different compound.
Please let me know if CC(=O)OC(C)(C)[C@@H]1Cc2cc3ccc(=O)oc3cc2O1 shows normalized growth below 1.
label 1
